- ASSAY REMARKS: Phase 1 SAD/MAD study: plasma pharmacokinetics of Compound 1a (LC-MS-MS, noncompartmental analysis)
- Type: in vivo, human
- SETUP CONDITIONS: human, plasma, po, 2000 mg, SAD 2,000 mg oral, fasted, average, plasma; read-out: t1/2 (converted)
OUTCOME MEASURE: half-life (h)
Lab book: enter the figure in h, no units written.

Ask: Using known records, supply half-life for O.O=C([O-])c1nn[nH]c1Oc1ccc(-c2ccc(C3CC(F)(F)C3)cc2)cc1.[Na+] [Compound 1a]
Result: 23.4

###

- ASSAY REMARKS: Phase 1 SAD/MAD study: plasma pharmacokinetics of Compound 1a (LC-MS-MS, noncompartmental analysis)
- Format: in vivo, human
- SETUP CONDITIONS: human, plasma, oral, 3000 mg, single dose 3000 mg, healthy volunteers, geometric mean (geometric CV %); read-out: Tmax
OUTCOME MEASURE: Tmax (h)
Lab book: enter the figure in h, no units written.

Ask: Using known records, supply Tmax for `O.O=C([O-])c1nn[nH]c1Oc1ccc(-c2ccc(C3CC(F)(F)C3)cc2)cc1.[Na+]`
Result: 2.9
